The measurements presented in this section are drawn from the RNAGym collection of RNA variant scans (doi:10.7554/elife.80360).

B1: CPEB3 Ribozyme (parent)
chain: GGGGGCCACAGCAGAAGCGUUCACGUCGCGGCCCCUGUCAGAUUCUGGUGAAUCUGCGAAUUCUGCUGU

Variants of: B1
Assay: self-cleavage, relative activity (ratio to wild type); higher = more cleavage; co-transcriptional
Test Readout: self-cleavage
# answer = number (no unit)

In: For the variant GGGGGCCACAGCAGAAGCGUUCACGUCGCGGCCCCUGUCUGAUUCUGGUGAAUCUGCGUAUUCUGCUGU [A40U A59U] , give its reported self-cleavage.
Out: 0.459

In: For the variant GGGGGCCACAGCAGAAGCGUUCACGUCGCGGCCCCUGUCAGAUUUUGGUGAAUCUGGGAAUUCUGCUGU [C45U C57G] , give its reported self-cleavage.
Out: 0.319

In: For the variant GUGGGCCACAGCAGAAGCGUUCACGUCGCGGCCACUGUCAGAUUCUGGUGAAUCUGCGAAUUCUGCUGU [G2U C34A] , give its reported self-cleavage.
Out: 0.0756

In: For the variant GGGGGCCACAGCAGACGGGUUCACGUCGCGGCCCCUGUCAGAUUCUGGUGAAUCUGCGAAUUCUGCUGU [A16C C18G] , give its reported self-cleavage.
Out: 0.114

In: For the variant GGGGCCCACAGCAGAAGCGUUCACGUCGCGGCCCCUGUCAGAUUCUGGUGAAUCUGCGAAUUUUGCUGU [G5C C63U] , give its reported self-cleavage.
Out: 0.207

In: For the variant GGGGGCCACAGCAGAAGCGUUCAUGUCGCGGCCCCUGUCAGAUUCUGGUGAAUCUGCGAAUUCUGGUGU [C24U C66G] , give its reported self-cleavage.
Out: 0.346

In: For the variant GGAGGCCACAGCAGAAGCGUUCACGUCGCCGCCCCUGUCAGAUUCUGGUGAAUCUGCGAAUUCUGCUGU [G3A G30C] , give its reported self-cleavage.
Out: 0.103

In: For the variant GGGGGCCACAGCUGAAGCGUUCACGUCGCGGCCCCUGUCAGAUUCUGGUGAAUCUGCGAAUUCCGCUGU [A13U U64C] , give its reported self-cleavage.
Out: 0.853

In: For the variant GGGGGCCACAGCAGAAGCGUACAGGUCGCGGCCCCUGUCAGAUUCUGGUGAAUCUGCGAAUUCUGCUGU [U21A C24G] , give its reported self-cleavage.
Out: 0.214

In: For the variant GGGGGCCACAGGAGAAGCGUUCACGUCGCGGCCCCUGUCAGAUUCUGGUGAAUCUGCGAGUUCUGCUGU [C12G A60G] , give its reported self-cleavage.
Out: 0.451

In: For the variant GGGGGCCACAGCAGAAACGUUCACGUCGCGGCCCCUGUCAGAUUCUGGUGAAUCUGCGAAUUCUGCUGG [G17A U69G] , give its reported self-cleavage.
Out: 0.677

In: For the variant GGGGGCCACAGCAGAAGUGUUCACGUCGCGGCCCCUGUCAGAUUCUGGUGAAUCUGCGAAUUCGGCUGU [C18U U64G] , give its reported self-cleavage.
Out: 0.43

In: For the variant GGGGGCCACAGCAGAAGCGUUCACGUCGGGGCCCCUGUCAGAUUCUGGUGAAUCUGCGAAUUCUACUGU [C29G G65A] , give its reported self-cleavage.
Out: 0.286

In: For the variant GGGGGCCACAGGAGCAGCGUUCACGUCGCGGCCCCUGUCAGAUUCUGGUGAAUCUGCGAAUUCUGCUGU [C12G A15C] , give its reported self-cleavage.
Out: 0.301

In: For the variant GGGUGCCACAGCAGAAGCGUUCACGUCGCGGCCCCUGUCUGAUUCUGGUGAAUCUGCGAAUUCUGCUGU [G4U A40U] , give its reported self-cleavage.
Out: 0.313

In: For the variant GGGGGCCACAGCAGAAGCGUUCACGUCGCGGCCCCUGUCAGAUCCUGGUGAAUCUGCGAAUUCUGCUGG [U44C U69G] , give its reported self-cleavage.
Out: 1.02
